B1: TPR 5TU (parent)
chain: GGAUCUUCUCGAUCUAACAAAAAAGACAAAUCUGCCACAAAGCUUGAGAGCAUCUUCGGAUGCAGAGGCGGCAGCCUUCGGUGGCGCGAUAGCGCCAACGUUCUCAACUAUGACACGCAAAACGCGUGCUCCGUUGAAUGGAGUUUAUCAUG

Variants of: B1
Assay: polymerase ribozyme fitness, log enrichment relative to wild type (log ratio); higher = more active; in vitro selection for triplet polymerase activity
This sample holds only a part of the variants without activity.
Label scheme for polymerase ribozyme fitness (log ratio): lower than -3 is Not fulfilled, -3 and above is Fulfilled.

Q. Check this variant for polymerase ribozyme fitness (log ratio) at or above -3: G84U C116U G143C
A. Not fulfilled

Q. State whether the measured polymerase ribozyme fitness (log ratio) reaches -3, counting equality as reaching it, for U6C U33G U56C G81C C95U
A. Not fulfilled

Q. Could you please find out whether A16U U31C C38U C114U has polymerase ribozyme fitness (log ratio) that meets -3 or exceeds it?
A. Not fulfilled

Q. Say whether A29C U33C U44A G80U C85U C93U G136U shows polymerase ribozyme fitness (log ratio) of -3 or more.
A. Not fulfilled

Q. Hello, I need to know if A97U U109G has measured polymerase ribozyme fitness (log ratio) not below -3. Thanks!
A. Fulfilled

Here's the next entry for you.
Q. In plain terms: is recorded polymerase ribozyme fitness (log ratio) at least -3 for A21G A52C G83U G84A U90C C95G G100A C103G A107U U139G ?
A. Not fulfilled
